The origin of these recorded values is PubChem BioAssay (NCI).

# Test system: HS 578T breast
# PROCEDURE_DETAILS: NCI tumour cell line growth inhibition, 48 h
In this section, each of the compounds is paired with its reported TGI.

SMILES_RECORD	TGI
COc1cc(-c2nc3nc(N4CCN(C)CC4)ccc3[nH]2)c(OC)c2[nH]c(COC(C)=O)nc12	> 100 µM
COc1cc(OC)cc(-c2cncn2-c2ccc(-c3nc4cc(OC)cc(OC)c4s3)cc2)c1	> 100 µM
Cc1n(CC(=O)c2ccccc2)nc2sc(N)n[n+]12	> 100 µM

====

# Tested on: NCI-H460 lung
# PROCEDURE_DETAILS: NCI tumour cell line growth inhibition, 48 h
REPORTED_METRIC: TGI

COMPOUND	REPORTED_METRIC	OBSERVED_RESULT
Nc1c(S(=O)(=O)O)cc(Nc2cccc(S(=O)(=O)/C=C/S(=O)(=O)O)c2)c2c1C(=O)c1ccccc1C2=O	TGI	> 100 µM
COc1ccc(-c2ccccc2)cc1-c1c(Nc2cc(Cl)cc(Cl)c2O)c(=O)c1=O	TGI	> 50 µM
CCOC(=O)C(C)c1nc2cc(N3CCN(C)CC3)c(F)cc2[nH]c1=O (stereo unspecified)	TGI	> 100 µM
COc1cc2ncn(-c3cc(OCc4ccccc4S(C)(=O)=O)c(C#N)s3)c2cc1OC	TGI	> 25 µM
O=C(NC1(C(=O)O)CC1c1ccccc1)c1ccccc1 (stereo unspecified)	TGI	> 100 µM
COc1ccccc1NC(=O)C1=C(C)NC(C)=C(C(=O)Nc2ccccc2OC)C1c1cccc2c1OCO2	TGI	> 100 µM
Nc1nc2cc(CNc3ccc(C(=O)NC(CCC(=O)O)C(=O)O)cc3)ccc2nc1-c1ccccc1 (stereo unspecified)	TGI	> 10 µM
Cn1ccc(C(=O)NCCCCCNC(=O)c2ccn(C)c(=O)c2O)c(O)c1=O	TGI	> 100 µM
CC(=O)OCC1OC(c2nnc(C)o2)=CC(OC(C)=O)C1OC(C)=O (stereo unspecified)	TGI	> 100 µM
O=C(O)CCCNS(=O)(=O)c1ccc2ccccc2c1	TGI	> 100 µM
c1cncc(CNc2ncn[nH]2)c1	TGI	> 100 µM
